The values you see were collected from patent US20240043439A1.

Target: C5aR (Homo sapiens (Human))
Assay: Calcium mobilization (U937/C5aR or HEK293/C5aR cells, FLIPR)
Type: cell-based
Conditions: agonist human C5a at EC80, FLIPR
pIC50: −log10 of the molar value.
endpoint label: pIC50

Report measured pIC50; entry is Cc1cccc(F)c1C(=O)N1C(c2ccc(NC3CCCC3)cc2)C(C(=O)Nc2ccc3c(cnn3C)c2)C[C@@H]2CCC[C@@H]21 (relative stereo) 6.30 to 7.30

Report measured pIC50; entry is Cc1ccc(NC(=O)[C@@H]2CCCN[C@H]2c2ccc(N(c3nccc4cccnc34)C3CCCC3)cc2)cc1C(F)(F)F 5.00 to 5.70

Report measured pIC50; entry is Cc1ccc(S(=O)(=O)N2CCC[C@H](C(=O)Nc3ccc(C)c(C(F)(F)F)c3)[C@@H]2c2ccc(NC3CCCC3)cc2)c(C)c1 5.00 to 5.70

Report measured pIC50; entry is Cc1ccc(NC(=O)[C@H]2CCCN(c3nccc4cccnc34)[C@H]2c2ccc(N(C(=O)OCc3ccccc3)C3CCCC3)cc2)cc1C(F)(F)F 5.00 to 5.70

Report measured pIC50; entry is Cc1ccc(NC(=O)[C@@H]2CCCN(c3ncnc4cccnc34)[C@H]2c2ccc(NC3CCCC3)cc2)cc1C(F)(F)F 5.00 to 5.70

Report measured pIC50; entry is Cc1cccc(F)c1C(=O)N1[C@@H]2COC[C@@H]2C[C@H](C(=O)Nc2ccc3[nH]ncc3c2)[C@@H]1c1ccc(NC2CCCC2)cc1 5.00 to 5.70

* * *

Target: C5aR (Homo sapiens (Human), UniProt P21730)
Sequence (P21730 whole entry): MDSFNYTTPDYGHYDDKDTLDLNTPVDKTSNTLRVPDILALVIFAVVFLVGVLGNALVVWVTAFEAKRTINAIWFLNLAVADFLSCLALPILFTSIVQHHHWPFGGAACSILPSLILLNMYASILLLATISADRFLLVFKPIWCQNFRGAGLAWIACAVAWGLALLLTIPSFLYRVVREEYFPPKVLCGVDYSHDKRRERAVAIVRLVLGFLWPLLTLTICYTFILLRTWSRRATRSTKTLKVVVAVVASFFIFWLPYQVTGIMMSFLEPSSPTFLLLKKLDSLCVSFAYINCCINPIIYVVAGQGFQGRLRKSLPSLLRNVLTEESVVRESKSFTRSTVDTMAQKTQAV
Experiment: Calcium mobilization (U937/C5aR or HEK293/C5aR cells, FLIPR)
Assay type: cell-based
Conditions: agonist human C5a at EC80, FLIPR
endpoint label: IC50

Report measured IC50; entry is Cc1cccc(F)c1C(=O)N1[C@@H]2CCC[C@@H]2C[C@H](C(=O)Nc2ccc3ncoc3c2)[C@@H]1c1ccc(NC2CCCC2)cc1 (racemic) 50 to 500 nM

Report measured IC50; entry is COC(=O)c1cccc(C)c1S(=O)(=O)N1CCC[C@H](C(=O)Nc2ccc(C)c(C(F)(F)F)c2)[C@@H]1c1ccc(NC2CCCC2)cc1 > 10000 nM

Report measured IC50; entry is Cc1ccc(NC(=O)[C@H]2CCCN(c3ncnc4cccnc34)[C@H]2c2ccc(N(C(=O)OCc3ccccc3)C3CCCC3)cc2)cc1C(F)(F)F 2000 to 10000 nM

* * *

Target: C5aR (Homo sapiens (Human), UniProt P21730)
Test: Calcium mobilization (U937/C5aR or HEK293/C5aR cells, FLIPR)
Type: cell-based
Conditions: agonist human C5a at EC80, FLIPR
pIC50: −log10 of the molar value.
Exercise: state measured pIC50 for each of the compounds provided.

Report measured pIC50; entry is Cc1ccc(NC(=O)[C@H]2CCCN(S(=O)(=O)c3cc(F)ccc3C)[C@H]2c2ccc(NC3CCCC3)cc2)cc1C(F)(F)F 5.00 to 5.70

Report measured pIC50; entry is Cc1cccc(F)c1C(=O)N1[C@@H]2CCC[C@@H]2C[C@H](C(=O)Nc2ccc(Cl)c(Cl)c2)[C@@H]1c1ccc(NC2CCCC2)cc1 (racemic) 5.00 to 5.70

Report measured pIC50; entry is Cc1cccc(F)c1C(=O)N1C2CCC[C@@H]2C[C@H](C(=O)Nc2cccc(F)c2)[C@@H]1c1ccc(NC2CCCC2)cc1 (mixture of isomers) 6.30 to 7.30

Report measured pIC50; entry is Cc1cccc(F)c1C(=O)N1C2COC[C@@H]2C[C@H](C(=O)Nc2ccccc2)[C@@H]1c1ccc(NC2CCOCC2)cc1 (relative stereo) 5.00 to 5.70

Report measured pIC50; entry is Cc1ccc(NC(=O)[C@H]2CCCN[C@H]2c2ccc(N(c3ncnc4ccccc34)C3CCCC3)cc2)cc1C(F)(F)F 5.00 to 5.70

Report measured pIC50; entry is Cc1cccc(F)c1C(=O)N1[C@@H]2CCC[C@@H]2C[C@H](C(=O)Nc2ccc3cnn(C)c3c2)[C@@H]1c1ccc(NC2CCCC2)cc1 [Compound 50] 5.70 to 6.30
